- MEASUREMENT_TARGET: Human L1CAM (purified protein) (human) (UniProt P32004)
- METHOD_NOTES: BLI, Octet RED384; antibody captured on AHC sensor, human L1CAM 50-0.78 nM as analyte
This section presents binders with their documented koff values.
Write the answer as a number in s⁻¹, unit excluded.

# BINDER, koff / s⁻¹
records = [
    ("Ab5D12 antibody (antibody, human IgG1, kappa, V domains shown, Whole human IgG1, kappa; also called Anti-L1CAM (\"Ab5D12\"); Ab5D12 mutant) VH: EVQLVESGGGVVQPGGSLRLSCAASGFTFSRFGMHWVRQAPGKGLEWVAFISNEGSNKYYADSVKGRFTISRDNSANTLYLQMNSLRAEDTAVYYCARGRAYGSGSLFDPWGQGTLVTVSS VL: DIQLTQSPSSLSASVGDRVTITCRASRTISSYVNWYRQRPGKAPESLIYAASNLHSGVPSRFSGSGSGTDFTLTISSLQPEDFATYYCQQSLVWYPWTFGQGTKLEIKR", "3.94e-05"),
]

Turning now to a further record.
Query: Determine from records and report koff for Ab4H5 antibody (antibody, human IgG1, kappa, V domains shown, Whole human IgG1, kappa; also called Anti-L1CAM ("Ab4H5"); Ab4H5 mutant) VH: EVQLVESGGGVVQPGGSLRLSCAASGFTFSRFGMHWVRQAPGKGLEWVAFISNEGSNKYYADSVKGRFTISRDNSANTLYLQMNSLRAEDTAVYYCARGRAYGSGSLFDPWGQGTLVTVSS VL: DIQLTQSPSSLSASVGDRVTITCRASRTISSYVNWYRQRPGKAPESLIYAASNLHSGVPSRFSGSGSGTDFTLTISSLQPEDFATYYCQQAGFYTPWTFGQGTKLEIKR
Reply: 2.98e-06

From: patent US20240301056A1
